Attribution: the RNAGym collection of RNA variant scans (doi:10.1073/pnas.2313332121)

B1: TPR t1 (parent)
chain: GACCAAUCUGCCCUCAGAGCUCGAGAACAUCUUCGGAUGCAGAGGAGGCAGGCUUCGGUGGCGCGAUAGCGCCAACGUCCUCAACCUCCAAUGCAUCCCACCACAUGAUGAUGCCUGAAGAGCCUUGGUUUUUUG

- Variants of: B1
- method.summary: polymerase ribozyme fitness, log enrichment relative to wild type (log ratio); higher = more active; in vitro selection for triplet polymerase activity
measure.name: polymerase ribozyme fitness (log ratio)

U9G G69C A105U U112G
-4.11
C13A C20U G61U
-2.05
G77U C94U C102A C115A
-2.01
